FYI, the data here is from patent US9777005B2.

- ASSAY TARGET: human M1 receptor (hCHRM1) (Homo sapiens)
- Sequence (P11229 1-460): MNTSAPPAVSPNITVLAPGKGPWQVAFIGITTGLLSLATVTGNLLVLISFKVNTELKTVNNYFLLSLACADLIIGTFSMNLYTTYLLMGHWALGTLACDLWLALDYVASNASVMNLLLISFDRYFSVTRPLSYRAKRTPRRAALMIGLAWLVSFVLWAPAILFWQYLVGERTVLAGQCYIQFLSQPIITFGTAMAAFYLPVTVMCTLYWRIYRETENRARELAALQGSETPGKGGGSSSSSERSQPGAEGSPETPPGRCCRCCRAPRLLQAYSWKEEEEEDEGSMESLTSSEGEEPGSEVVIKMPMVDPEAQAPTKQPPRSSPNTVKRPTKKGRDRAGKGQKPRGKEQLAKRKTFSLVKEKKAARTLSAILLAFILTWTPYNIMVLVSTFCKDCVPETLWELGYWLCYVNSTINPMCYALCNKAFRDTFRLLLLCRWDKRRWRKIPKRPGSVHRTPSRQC
- ASSAY NAME: Measurement of M1 receptor positive allosteric modulator (M1PAM) activity, calcium fluorescence (FLIPRtetra) in CHO-K1 cells in the presence of acetylcholine at EC20
- CONDITION: inflection point of M1PAM activity, in the presence of acetylcholine at EC20 (final 0.6 nM), CHO-K1 cells expressing hCHRM1; read-out: IP value
Exam item: assign true to entries whose EC50 is below 10 nM and false to entries at or above 10 nM. Note that a value of exactly 10 nM receives false.

- COMPOUND: "Cn1cc(-c2ccc(CN3Cc4ccnc(Oc5ccc(C(C)(C)C#N)cc5F)c4C3=O)cc2)cn1"
  ASSAY TARGET: "human M1 receptor (hCHRM1) (Homo sapiens)"
  CAT: "true"
- COMPOUND: "CCCc1ccc(Oc2nccc3c2C(=O)N(Cc2ccc(C(=O)NC)nc2)C3)c(F)c1"
  ASSAY TARGET: "human M1 receptor (hCHRM1) (Homo sapiens)"
  CAT: "false"
- COMPOUND: "Cc1cn(-c2ccc(CN3Cc4ccnc(Oc5ccc(C(F)(F)F)cc5F)c4C3=O)cc2)cn1"
  ASSAY TARGET: "human M1 receptor (hCHRM1) (Homo sapiens)"
  CAT: "true"
- COMPOUND: "CCC(CO)Oc1nccc2c1C(=O)N(Cc1ccc(-c3cn(C)nc3C)cc1)C2 (single isomer, unassigned) [Example 274]"
  ASSAY TARGET: "human M1 receptor (hCHRM1) (Homo sapiens)"
  CAT: "false"
- COMPOUND: "NC(=O)c1ccc(CN2Cc3ccnc(Oc4ccc(C(F)(F)F)cc4F)c3C2=O)cc1"
  ASSAY TARGET: "human M1 receptor (hCHRM1) (Homo sapiens)"
  CAT: "false"
- COMPOUND: "Cc1nn(C)cc1-c1ccc(CN2Cc3ccnc(Oc4c(F)cccc4Cl)c3C2=O)cc1"
  ASSAY TARGET: "human M1 receptor (hCHRM1) (Homo sapiens)"
  CAT: "false"
- COMPOUND: "O=C1c2c(ccnc2O[C@@H]2CCCC[C@H]2O)CN1Cc1cc(F)ccc1F (single isomer, unassigned)"
  ASSAY TARGET: "human M1 receptor (hCHRM1) (Homo sapiens)"
  CAT: "true"
- COMPOUND: "Cc1nn(C)cc1-c1ccc(CN2Cc3ccnc(OCc4ncccc4F)c3C2=O)c(F)c1"
  ASSAY TARGET: "human M1 receptor (hCHRM1) (Homo sapiens)"
  CAT: "true"
- COMPOUND: "Cc1nn(C)cc1-c1ccc(CN2Cc3ccnc(OCC4CCOC4)c3C2=O)cc1 (centres unmarked)"
  ASSAY TARGET: "human M1 receptor (hCHRM1) (Homo sapiens)"
  CAT: "false"
- COMPOUND: "Cn1ccc(-c2ccc(CN3Cc4ncnc(Oc5ccc(C(F)F)cc5F)c4C3=O)cc2)n1"
  ASSAY TARGET: "human M1 receptor (hCHRM1) (Homo sapiens)"
  CAT: "false"
- COMPOUND: "O=C1c2c(cc(F)cc2O[C@H]2CCCC[C@@H]2O)CN1Cc1ccc(-n2cccn2)cc1 (relative stereo)"
  ASSAY TARGET: "human M1 receptor (hCHRM1) (Homo sapiens)"
  CAT: "false"
